# Test system: 565232-114-T-J1-PDC complex spheroid viability;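 note: spheroids exposed to compounds for 7 days before readout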
# ASSAY REMARKS: Anticancer human tumor 565232-114-T-J1-PDC patient-derived bladder carcinoma cell line growth inhibition [CLK]; active = viability on the fitted dose curve at most 10% of control; inactive = the rest
# MEASUREMENT CONDITIONS: second compound 0.0316 µM; first compound 0.1 µM
# Excerpt: A high-throughput screen of multi-cell type tumor spheroids was designed to identify active combinations of […] and targeted small molecules. Complex spheroids include a stromal component modeled by human endothelial cells (HUVEC) and fibroblasts modeled by human mesenchymal stem cells (MSCs). […] Compounds. […] If the clinical Cmax for an agent had not been determined, the highest concentration tested was 10 microM. […]
Hello, when you answer, please use one of the following outcomes: active, inactive

Illustrative cases are given below, each with its answer.
What did this assay record as the result for CC(Nc1ccc2c(c1)OCCn1cc(N3C(=O)OCC3C(F)F)nc1-2)C(N)=O (centres undefined) + CNC(=O)c1ccc(Nc2nc(OC3CCCC3)c3c(-c4ccc5nc(C)oc5c4)c[nH]c3n2)c(OC)c1 ?
inactive

What did this assay record as the result for COC1C=CCC(C)C(C)S(=O)(=O)NC(=O)c2ccc3c(c2)N(CC2CCC21)CC1(CCCc2cc(Cl)ccc21)CO3 (centres undefined) + CNC(=O)c1ccc(Nc2nc(OC3CCCC3)c3c(-c4ccc5nc(C)oc5c4)c[nH]c3n2)c(OC)c1 ?
inactive

What did this assay record as the result for O=c1[nH]cc(F)c(=O)[nH]1 + CN1CCN(c2cc(C(=O)Nc3cc4cc(-c5cnn(C)c5)ccc4cn3)ccn2)CC1 ?
inactive

What did this assay record as the result for CCc1c2c(nc3ccc(O)cc13)-c1cc3c(c(=O)n1C2)COC(=O)[C@]3(O)CC + CNC(=O)c1ccc(Nc2nc(OC3CCCC3)c3c(-c4ccc5nc(C)oc5c4)c[nH]c3n2)c(OC)c1 ?
active

What did this assay record as the result for CC1(C)CCC(CN2CCN(c3ccc(C(=O)NS(=O)(=O)c4ccc(NCC5CCOCC5)c([N+](=O)[O-])c4)c(Oc4cnc5[nH]ccc5c4)c3)CC2)=C(c2ccc(Cl)cc2)C1 + CN1CCN(c2cc(C(=O)Nc3cc4cc(-c5cnn(C)c5)ccc4cn3)ccn2)CC1 ?
inactive

What did this assay record as the result for CC1COCCN1c1cc(C2(S(C)(=N)=O)CC2)nc(-c2ccnc3[nH]ccc23)n1 (centres undefined) + CNC(=O)c1ccc(Nc2nc(OC3CCCC3)c3c(-c4ccc5nc(C)oc5c4)c[nH]c3n2)c(OC)c1 ?
inactive

---
What did this assay record as the result for CCN1CCN(Cc2ccc(Nc3ncc(F)c(-c4cc(F)c5nc(C)n(C(C)C)c5c4)n3)nc2)CC1 + CNC(=O)c1ccc(Nc2nc(OC3CCCC3)c3c(-c4ccc5nc(C)oc5c4)c[nH]c3n2)c(OC)c1 ?
inactive

What did this assay record as the result for COc1ccc([C@@H](O)c2cc(-c3ncnc4cc(N5CCOCC5)ccc34)c(F)cc2Cl)nn1 + CNC(=O)c1ccc(Nc2nc(OC3CCCC3)c3c(-c4ccc5nc(C)oc5c4)c[nH]c3n2)c(OC)c1 ?
inactive

What did this assay record as the result for CCCS(=O)(=O)Nc1ccc(F)c(C(=O)c2c[nH]c3ncc(-c4ccc(Cl)cc4)cc23)c1F + CNC(=O)c1ccc(Nc2nc(OC3CCCC3)c3c(-c4ccc5nc(C)oc5c4)c[nH]c3n2)c(OC)c1 ?
inactive

What did this assay record as the result for C#Cc1c(F)ccc2cc(O)cc(-c3ncc4c(N5CC6CCC(C5)N6)nc(OCC56CCCN5CC(F)C6)nc4c3F)c12 (centres undefined) + CNC(=O)c1ccc(Nc2nc(OC3CCCC3)c3c(-c4ccc5nc(C)oc5c4)c[nH]c3n2)c(OC)c1 ?
inactive

What did this assay record as the result for COc1c(OCCCN2CCOCC2)ccc2c3n(c(=NC(=O)c4cnc(N)nc4)nc12)CCN3 + CNC(=O)c1ccc(Nc2nc(OC3CCCC3)c3c(-c4ccc5nc(C)oc5c4)c[nH]c3n2)c(OC)c1 ?
inactive
